STUDY_SYSTEM: T1, recombinant human VEGF165 (human, UniProt P15692-4 27-191, biotinylated (Sulfo-NHS-LC-Biotin) in the competition assays)
T1 construct: also called hVEGF165; rhVEGF165
T1 sequence (P15692 other isoform, or with tags, fused parts or gaps limits assumed): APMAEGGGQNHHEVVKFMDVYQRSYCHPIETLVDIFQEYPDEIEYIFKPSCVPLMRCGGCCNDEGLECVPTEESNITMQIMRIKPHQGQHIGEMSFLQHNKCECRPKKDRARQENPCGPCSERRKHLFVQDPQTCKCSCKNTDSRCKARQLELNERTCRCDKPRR
ASSAY_PROTOCOL: Biacore, periplasmic extract, VEGF165 chip, two phase decay fit
Design: unit not given here
ATTRIBUTE_MEASURED: kd(fast)
In your answer, state the number alone without any accompanying words.

Identify kd(fast) associated with the binder VEGFBII22A11 (VHH, not shown: small tags and cut ends) VHH: EVQLVESGGGLVQPGDSLKLSCAFSGRTFSSYSMAWFRQAQGKEREFVVAISSGGFIYDAVSLEGRFTISRDNTKNTVYLQTPSLKPEDTAVYYCAASRAYGSSRLRLADTYDYWGQGTQVTVSS
0.022
